Molecular target: T1, Merlin FERM domain (Merlin-FERM, residues 1-320) (human, UniProt P35240 1-320)
T1 sequence (looked up): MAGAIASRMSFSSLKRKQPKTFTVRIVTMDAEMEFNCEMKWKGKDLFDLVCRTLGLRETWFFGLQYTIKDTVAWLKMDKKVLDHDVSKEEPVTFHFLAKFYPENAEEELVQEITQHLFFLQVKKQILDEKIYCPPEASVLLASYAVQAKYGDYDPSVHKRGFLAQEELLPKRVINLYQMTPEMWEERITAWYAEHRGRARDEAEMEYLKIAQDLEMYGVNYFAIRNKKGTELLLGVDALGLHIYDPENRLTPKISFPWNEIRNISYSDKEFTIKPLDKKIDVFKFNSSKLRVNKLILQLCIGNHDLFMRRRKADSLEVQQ
Assay: ITC
pKd: −log10 of the molar value.
Listing: pKd of selected binders
observable: pKd

1. ILDFNISLAMAKERAHQKRSSKRAPQMDWSKKNELFSNL (domain or fragment, human, UniProt O14745 320-358, looked up) [EBP50 C-terminal tail (EBP50-CT, residues 320-358)]; ~7.10
2. N-terminus of Lats1 (Lats1-NT, residues 1-153) (domain or fragment, mouse, UniProt Q8BYR2 1-153, looked up) MKRGEKPEGYRQMRPKTFPASNYPGSSRQMLQEIRESLRNLSKPSDASKAEHNLNKMSTEDPRQVRNPPKFGTHHKALQEIRNSLLPFANETSSSRSPSEVNPQMFQDLQAAGFDEDMVIQALQKTNNRSIEAAVEFISKMSYQDPRREQMSA; ~5.85
